Assay: qHTS Assay for Identifying Gametocytocidal Compounds (AID 743244);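 note: % is set by controls: 0 for no effect and ±100 for the full control effect; actives lower the fluorescent signal which means gametocytes are killed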
Conditions: P. falciparum 3D7 stage III-V gametocytes, alamarBlue, 72 h; active compounds read low
Inconclusive results are not listed.
measured_quantity: max response (%)
Give the value, in units of %, as a plain number.

Past entries and their recorded results:
compound	max response / %
COc1ccc(CNCC(O)COc2ccc3[nH]c(=O)ccc3c2)cc1OC (configuration not stated)	-1.67
CCCCCCCCCCCCCCCCCC(=O)[O][Al]	-2.25
O=C(Nc1ccc(/C=C/c2ccc(NC(=O)c3cc(S(=O)(=O)O)c4cccnc4c3O)cc2S(=O)(=O)O)c(S(=O)(=O)O)c1)c1cc(S(=O)(=O)O)c2cccnc2c1O	-6.63
CCC(CN)CC(C)CCNCC(O)CNCC(C)CC(CC)CN (configuration not stated)	-11

Looking for the measured max response of CC(C(=O)O)c1ccc(C2CCCCC2)c2ccccc12 (configuration not stated) , can you help?
16

Next entry: "Cn1nnnc1SCC1=C(C(=O)O)N2C(=O)[C@@H](NC(=O)[C@H](OC=O)c3ccccc3)[C@H]2SC1"
10.2

Next entry: "COc1cc(C[C@@H]2NCCc3cc(O)c(O)cc32)cc(OC)c1OC"
-17.1

---

System: HeLa
Assay: Primary qHTS to identify gynecologic anti-cancer compounds using libraries of approved drugs and bioactive compounds (AID 1345084); note: nearly all actives have a fitted effect of over 55% in size; note: potency is the fitted concentration of half-maximal effect
Conditions: Gynecologic cancer cell panel viability, ATPlite luminescence, 48 h; series mostly up to 57.5 µM
Inconclusive results are not listed. Active and inactive are the calls of the source. The call rests on the fitted dose curve; in most records, active means well fitted cell-killing curve with a large enough effect; inconclusive means small, poorly fitted or top-dose-only effect, or effect the other way; inactive means flat fitted curve, though single readings scatter.
measured_quantity: Potency

Past entries and their recorded results:
compound	measured_quantity	meas_value
C=C1CC[C@@H]2[C@](C)(CO)[C@H](O)CC[C@@]2(C)[C@@H]1/C=C/C1=CCOC1=O	Potency	inactive
C=C1C(=O)O[C@@H]2/C=C(\CO)CC/C=C(/C=O)C[C@H](O)[C@@H]12	Potency	inactive
Nc1nc2c(cnn2CCCc2ccc(O)cc2)c2nc(-c3ccco3)nn12	Potency	inactive
COc1cc(N2CCC(N)CC2)ccc1Nc1ncc(Cl)c(-c2c[nH]c3ccccc23)n1	Potency	3.98 µM (active)
CC1=CC2/C=C(\C)CCC(O)C(=O)C(O)CC(=O)C23C(=O)NC(CC(C)C)C3C1C (stereo not drawn)	Potency	inactive
COc1cc(C(=O)O)ccc1NC(=O)C1NC(CC(C)(C)C)C(C#N)(c2ccc(Cl)cc2F)C1c1cccc(Cl)c1F (stereo not drawn)	Potency	inactive
C[C@@H]1C[C@H]2O[C@@]3(O[C@@H]2C(C)(C)O)C(O)[C@@]2(C)C4CCC5C(C)(C)[C@@H](O[C@H]6OC[C@H](O)[C@@H](O)[C@@H]6O)CC[C@@]56C[C@@]46CC[C@]2(C)C13 (stereo partly drawn)	Potency	inactive

Moving on to the next compound.
Looking for the measured Potency of "CNCCN1CCC(c2cc(CN(C)C(=O)c3cccc(Oc4ccccc4)c3)ccn2)CC1" , can you help?
inactive

---

Tested on: OV90
Experiment: Primary qHTS to identify gynecologic anti-cancer compounds using libraries of approved drugs and bioactive compounds (AID 1345084); note: nearly all actives have a fitted effect of over 55% in size
Conditions: Gynecologic cancer cell panel viability, ATPlite luminescence, 48 h; series mostly up to 57.5 µM
Inconclusive results are not listed. The source made the active and inactive calls. Calls come from the whole dose curve; as a rule, active = well fitted cell-killing curve with a large enough effect; inconclusive = small, poorly fitted or top-dose-only effect, or effect the other way; inactive = flat fitted curve, though single readings scatter.
The reply should be one of these categories: TRUE (active), FALSE (inactive)

Use the examples below as a reference point.
compound	category
O=c1[nH]cnc2c([C@@H]3N[C@H](CO)[C@@H](O)[C@H]3O)c[nH]c12	FALSE
C=C1CC[C@@H](O)[C@]2(C)CC[C@H]3C(=C)C(=O)O[C@@H]3[C@@H]12	FALSE
CC(C)n1c(=O)c(C(=O)NC2CC3CCC(C2)N3C[C@@H](O)CN(C)S(C)(=O)=O)cc2ccccc21 (some centres undefined)	FALSE

Hi, do you know how COC1CC/C=C(\C)C(=O)Nc2cc(O)cc(c2)CC(C)CC(OC)C(O)C(C)/C=C(\C)C1OC(N)=O (centres undefined) came out in this test?
TRUE

Value source: PubChem BioAssay (NCATS)
